Tested on: Plasmodium berghei
Test: Screen against P. berghei liver stage (PbLuc), transformed with Luciferase, at 10uM
Assay type: functional, HepG2
Details: tested at 10 uM
In all, about 69,000 compounds went through this assay and about 8,600 (12%) showed an effect of 50% or more. This excerpt belongs to a sample that is enriched for strong results.
List of INHIBITION values.
MEASURED_QUANTITY: INHIBITION (%)

1) Cc1cc(C)n(CCNC(=O)c2cc(C3CC3)n[nH]2)n1
20.8
2) CCc1nc(C2CCCN(C(=O)c3ccccc3Cl)C2)no1 (stereo not drawn)
42
3) OC(c1cccs1)C1CCN(c2ncccn2)CC1 (stereo not drawn)
48
4) Cc1cc(C)n(CC2CCCN2C(=O)c2cccc3c2OCCO3)n1 (stereo not drawn)
10.85
5) CC(C)N(C)S(=O)(=O)N(Cc1cccs1)Cc1cccs1
14.6
6) OCC(O)CSCc1ccc(F)cc1Cl (stereo not drawn)
-15.6
7) CN(c1cccnn1)C1CCN(C(=O)c2n[nH]c3c2CCC3)CC1
-16.7
8) CC(C)c1n[nH]c(C2CN(C(=O)c3cc(C4CC4)[nH]n3)CCO2)n1 (stereo not drawn)
-20.2
9) CC(C)NC(=O)NCCCc1cccc(F)c1
12.2
10) COCCN1CCCN(C(=O)NC(C)Cn2ccnc2)CC1 (stereo not drawn)
26.3
11) Cn1cnnc1CN1CCC2(CCC(=O)N(Cc3ccccn3)C2)CC1
-42.2
12) CCc1nc(C2CCCN(c3ncccn3)C2)no1 (stereo not drawn)
-113
13) CCc1nc(C)c(CN2CCN(c3ncnc4scc(C)c34)CC2)[nH]1
30.5
14) Cc1cc(C(=O)NCc2cnn(C)c2C)nc(N2CCCCCC2)n1
-7.53
15) COc1cc(F)ccc1CC(=O)N1CC[C@H]2C(=O)NCCO[C@H]2C1
52.1
16) COCCn1cc(NC(=O)NC(C)Cc2c(F)cccc2F)cn1 (stereo not drawn)
15.3
17) CC(=O)c1ccc(NC(=O)N(CCN(C)C)Cc2ccc(C)s2)cc1
26.6
18) CCc1nc(C2CCCN(C(=O)c3ccccc3F)C2)no1 (stereo not drawn)
60.5
19) CC(Cc1cccc(Cl)c1)NC(=O)NCc1ncnn1C (stereo not drawn)
64.3
20) O=C(Nc1ccc2c(c1)OCO2)Nc1cnn(C2CCOCC2)c1
36.5
21) NC(=O)[C@@H]1CN2CCN(C(=O)C3CC3)C[C@@H]2[C@H]1c1ccccc1
16.9
22) CN(C)CCN1C(=O)CCCC12CCCN(C(=O)c1cc[nH]n1)C2 (stereo not drawn)
34.5
23) Cc1n[nH]c(CN2CCN(c3ncnc4scc(C)c34)CC2)c1Cl
68.2
24) CCc1nc(C(=O)N2CCCC2)nn1-c1c(Cl)cccc1Cl
48.4
25) CCc1nccn1C1CCCN(C(=O)c2cncnc2C)C1 (stereo not drawn)
21.6
26) Cc1cccc(CC(=O)Nc2cnn(C3CCOC3)c2)c1 (stereo not drawn)
-13.6
27) COc1cccnc1NC(=O)COc1c(C)cccc1C
36.5
28) Cc1nn(C)c(C)c1-c1cnc(CC2CCNCC2)cn1
21.1
29) COc1ccccc1CN(Cc1cccs1)S(=O)(=O)N(C)C(C)C
67.5
30) O=C(Cc1cccs1)Nc1cnn(C2CCOCC2)c1
71.3
31) Cc1cc(C)n(CCCNC(=O)C(C)NC(=O)CC2CCCCC2)n1 (stereo not drawn)
-7.98
32) Cc1noc(C(C)C)c1C(=O)NS(=O)(=O)c1ccc(Cl)cc1
-28.4
33) CC(Cc1ccco1)NC(=O)CCn1cccn1 (stereo not drawn)
38.6
34) CCc1nc(C)c(CN2CCN(c3ncnc4c(C)csc34)CC2)[nH]1
4.35
35) COc1cccnc1NC(=O)c1ccc(COCC(F)(F)F)cc1
62.4
36) CC(CCc1cccc(F)c1)NC(=O)NCc1ncnn1C (stereo not drawn)
56.4
37) Cn1ccnc1CNC(=O)CCc1cccc(F)c1
-0.35
38) CC(NS(=O)(=O)CCc1ccccn1)c1ccccc1Br (stereo not drawn)
-9.35
39) Cc1n[nH]c(NC(=O)c2ccc(COCC(F)(F)F)cc2)c1C
52.5
40) O=C(CS(=O)(=O)Cc1ccccc1)NC1CCCCNC1=O (stereo not drawn)
5.7
41) CC(C)CCNC(=O)C1CCN(c2ccc3nnc(C(C)C)n3n2)CC1
21
42) CN(Cc1ccc(F)cc1)C(=O)Nc1cccnc1N1CCCC1
-2.33
43) Cc1cc(C)c(CNC(=O)N2CCCC2c2cccc(F)c2)c(=O)[nH]1 (stereo not drawn)
27.8
44) CN1CCc2c(sc3c2C(=O)NC(C=Cc2ccccc2)N3)C1 (stereo not drawn)
-45.3
45) COCCN1CCN(C(=O)NC2CC2)Cc2ccc(C)nc21
60.1
46) COCCN1CCN(S(=O)(=O)C2CC2)Cc2ccc(C)nc21
0.804
47) Cc1cccc(N2CCc3ncc(CNc4ccccn4)n3CC2)n1
-26.1
48) Cn1cnnc1CN1CCC2(CCC(=O)N(Cc3ccccc3)C2)CC1
76.2

Data provenance: ChEMBL document CHEMBL4513216
